Origin of measurements: ChEMBL document CHEMBL3813694

Please respond with reported IC50 for every item in the list.
# Tested on: WiDr
# EXPERIMENTAL PROTOCOL: Cytotoxicity against human WiDr cells assessed as reduction in cell proliferation after 48 hrs by sulforhodamine B assay
# Type: functional, cell-based
Field: numeric (µM). Do not append units.

Prompt: Look up IC50 for this compound: CCCCCCNC(=O)/C=C/c1ccc(O)c(OC)c1 [FERULOYLHEXYLAMIDE]
Response: 91

Prompt: # query: IC50 of entry CCCCCCNC(=O)/C=C/c1cc(O)c(O)c(O)c1
Response: 82.4

Prompt: Given CCCCCCNC(=O)/C=C/c1ccc(O)c(O)c1 [CAFFEOYLHEXYLAMIDE] , state its recorded IC50.
Response: 34.6
